# System: SNB-19
# assay_summary: NCI tumour cell line growth inhibition, 48 h
Active and inactive are the calls of the source. Rule as the data show it: active = GI50 up to about 1.1 µM and inactive = higher.
Entry note: the call must match one of active, inactive

Illustrative cases are given below, each with its answer.
O=C(c1cccs1)N(C(=O)N1CCCCC1)c1ccccc1 ... inactive
COc1ccc2c(c1)CCN=C2Cc1ccccc1CCCl ... inactive
COC1(OC)N=C(N)C2(C#N)C(C)=C3NCN(C)N=C3C12C#N (stereo not given) ... inactive
CN(C)c1ccc(/C=N\NC(=O)c2ccccc2Nc2ccccc2C(=O)N/N=C/c2ccc(N(C)C)cc2)cc1 ... inactive

Query: Call for entry CN(C)CC1(C)CC/C(=C\c2ccc3c(c2)OCO3)C1=O (stereo not given) :
Result: inactive

Query: Per the assay record, what outcome was assigned to COc1c(C=O)c2c(c(OC)c1OC)-c1ccc(OC)c(=O)cc1[C@@H](NC(C)=O)CC2 ?
Result: active

Query: Per the records of this test, what outcome belongs to COC(=O)c1ccc(C)cc1CC1Cc2cc(C)ccc2C1=O (stereo not given) ?
Result: inactive

Query: Name the outcome recorded for CC(=O)NNc1nc(C)c(C(/C=C/c2ccc(Cl)cc2)=N/NC(=O)C[N+](C)(C)C)s1 in the assay.
Result: inactive

Query: Which outcome was entered for the compound O=C1N/C(=N/N=C\C(O)C(O)C(O)CO)N/C1=C/c1ccccc1 (stereo not given) in this test?
Result: inactive

Query: Which outcome was entered for the compound COc1ccc(/C=C(/C(=O)c2ccc(Cl)cc2)N2C=CC=CC2=C(C#N)C#N)cc1OC in this test?
Result: inactive

Where these numbers come from: ChEMBL document CHEMBL1201862
